The origin of these recorded values is paper PMC10247784.

This listing pairs molecules with measured RLU.
- Assay target: human TAS2R1 (Homo sapiens, UniProt Q9NYW7)
- Construct: expressed in transfected cells; host or cells: HEK293T-Gα16gust44
- Sequence (Q9NYW7 1-299): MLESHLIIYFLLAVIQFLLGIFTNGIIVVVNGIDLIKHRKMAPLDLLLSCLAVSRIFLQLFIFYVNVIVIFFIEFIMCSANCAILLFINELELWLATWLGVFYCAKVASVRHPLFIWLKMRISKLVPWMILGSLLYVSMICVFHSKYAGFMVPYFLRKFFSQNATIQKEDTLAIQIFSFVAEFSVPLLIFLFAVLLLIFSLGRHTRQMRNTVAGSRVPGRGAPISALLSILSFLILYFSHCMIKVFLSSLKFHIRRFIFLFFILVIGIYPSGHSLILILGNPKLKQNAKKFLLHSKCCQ
- Assay summary: Calcium imaging assay (FLIPR), HEK293T-Gα16gust44 cells transfected with human TAS2R1
- Assay type: cell-based
- Condition summary: calcium trace, sheet TAS2R1; Time 359.547 s
Expressed in RLU, but write only the number.

Record excerpt, results attached:
INSERT INTO results (molecule, readout_label, reading) VALUES
  ('C[C@H](CCC(=O)NCCS(=O)(=O)O)[C@H]1CC[C@H]2[C@@H]3CC[C@@H]4C[C@H](O)CC[C@]4(C)[C@H]3CC[C@]12C [Taurolithocholic Acid, taurolithocholic acid]', 'RLU', -233.286),
  ('C[C@H](CCC(=O)NCC(=O)O)[C@H]1CC[C@H]2[C@@H]3[C@H](O)C[C@@H]4C[C@H](O)CC[C@]4(C)[C@H]3C[C@H](O)[C@]12C [Glycocholic Acid, glycocholic acid]', 'RLU', 49.6251),
  ('C[C@H](CCC(=O)NCCS(=O)(=O)O)[C@H]1CC[C@H]2[C@@H]3[C@H](O)C[C@@H]4C[C@H](O)CC[C@]4(C)[C@H]3C[C@H](O)[C@]12C [Taurocholic Acid, taurocholic acid]', 'RLU', 34.6741);

# input for lookup
Param item = C[C@H](CCC(=O)O)[C@H]1CC[C@H]2[C@@H]3CC[C@@H]4C[C@H](O)CC[C@]4(C)[C@H]3C[C@H](O)[C@]12C [Deoxycholic Acid, deoxycholic acid] ; retrieve measured RLU.
131.392

###

Parameter RLU: see the listing below.
- Assay target: human TAS2R14 (Homo sapiens, UniProt Q9NYV8)
- Construct: expressed in transfected cells; host or cells: HEK293T-Gα16gust44
- Sequence (Q9NYV8 whole entry): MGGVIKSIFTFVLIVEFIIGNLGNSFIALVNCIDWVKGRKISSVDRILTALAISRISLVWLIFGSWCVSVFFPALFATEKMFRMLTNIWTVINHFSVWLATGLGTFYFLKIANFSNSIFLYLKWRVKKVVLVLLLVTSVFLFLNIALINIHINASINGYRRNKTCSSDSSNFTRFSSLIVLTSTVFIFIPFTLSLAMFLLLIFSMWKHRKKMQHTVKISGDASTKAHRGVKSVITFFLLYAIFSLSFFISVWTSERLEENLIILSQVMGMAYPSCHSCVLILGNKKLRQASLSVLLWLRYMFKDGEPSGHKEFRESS
- Assay summary: Calcium imaging assay (FLIPR), HEK293T-Gα16gust44 cells transfected with human TAS2R14
- Type: cell-based
- Condition summary: TAS2R14 trace; Time (s) 36.797 (Chenodeoxycholic Acid 36.781)
Form field: result (number plus unit)

INSERT INTO measurements (compound, reading) VALUES
  ('C[C@H](CCC(=O)NCC(=O)O)[C@H]1CC[C@H]2[C@@H]3[C@H](O)C[C@@H]4C[C@H](O)CC[C@]4(C)[C@H]3C[C@H](O)[C@]12C', '94.7938 RLU'),
  ('C[C@H](CCC(=O)O)[C@H]1CC[C@H]2[C@@H]3[C@H](O)C[C@@H]4C[C@H](O)CC[C@]4(C)[C@H]3C[C@H](O)[C@]12C', '189.099 RLU'),
  ('C[C@H](CCC(=O)O)[C@H]1CC[C@H]2[C@@H]3[C@H](O)C[C@@H]4C[C@H](O)CC[C@]4(C)[C@H]3CC[C@]12C', '289.916 RLU'),
  ('C[C@H](CCC(=O)NCCS(=O)(=O)O)[C@H]1CC[C@H]2[C@@H]3CC[C@@H]4C[C@H](O)CC[C@]4(C)[C@H]3CC[C@]12C', '37.8124 RLU');

# input compound: `C[C@H](CCC(=O)NCCS(=O)(=O)O)[C@H]1CC[C@H]2[C@@H]3[C@H](O)C[C@@H]4C[C@H](O)CC[C@]4(C)[C@H]3C[C@H](O)[C@]12C` ; wanted: its RLU
98.6425 RLU

###

- Assay target: human TAS2R1 (Homo sapiens, UniProt Q9NYW7)
- Construct: expressed in transfected cells; host or cells: HEK293T-Gα16gust44
- Assay summary: Calcium imaging assay (FLIPR), HEK293T-Gα16gust44 cells transfected with human TAS2R1
- Type: cell-based
- Condition summary: Time 16 s
Readout label: RLU (RLU)
Please give a number only; it is taken to be in RLU.

INSERT INTO measurements (compound, readout_label, reading) VALUES
  ('C[C@H](CCC(=O)NCC(=O)O)[C@H]1CC[C@H]2[C@@H]3[C@H](O)C[C@@H]4C[C@H](O)CC[C@]4(C)[C@H]3C[C@H](O)[C@]12C', 'RLU', 4.111),
  ('C[C@H](CCC(=O)NCCS(=O)(=O)O)[C@H]1CC[C@H]2[C@@H]3CC[C@@H]4C[C@H](O)CC[C@]4(C)[C@H]3CC[C@]12C', 'RLU', 0.9458),
  ('C[C@H](CCC(=O)O)[C@H]1CC[C@H]2[C@@H]3CC[C@@H]4C[C@H](O)CC[C@]4(C)[C@H]3C[C@H](O)[C@]12C', 'RLU', 17.8407);

--- query ---
Dear colleague, I am looking for the recorded RLU of the following molecule: `C[C@H](CCC(=O)NCCS(=O)(=O)O)[C@H]1CC[C@H]2[C@@H]3[C@H](O)C[C@@H]4C[C@H](O)CC[C@]4(C)[C@H]3C[C@H](O)[C@]12C`
-4.025

###

- Assay target: mouse Tas2r105 (Mus musculus, UniProt Q9JKT4)
- Construct: expressed in transfected cells; host or cells: HEK293T-Gα16gust44
- Sequence (Q9JKT4 whole entry): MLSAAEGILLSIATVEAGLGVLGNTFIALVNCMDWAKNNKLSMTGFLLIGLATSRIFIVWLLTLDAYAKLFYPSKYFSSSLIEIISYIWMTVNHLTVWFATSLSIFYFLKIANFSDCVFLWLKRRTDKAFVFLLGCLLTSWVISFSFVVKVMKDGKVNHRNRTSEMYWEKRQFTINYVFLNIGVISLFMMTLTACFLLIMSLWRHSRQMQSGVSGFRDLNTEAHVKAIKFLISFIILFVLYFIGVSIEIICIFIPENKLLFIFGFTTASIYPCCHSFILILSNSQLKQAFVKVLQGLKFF
- Assay summary: Calcium imaging assay (FLIPR), HEK293T-Gα16gust44 cells transfected with mouse Tas2r105
- Type: cell-based
- Condition summary: Time 82.781 s
Readout label: RLU (RLU)
Give the quantity in RLU, number only.

Use the examples below as a reference point.
INSERT INTO assay_data (compound, readout_label, reading) VALUES
  ('C[C@H](CCC(=O)O)[C@H]1CC[C@H]2[C@@H]3[C@H](O)C[C@@H]4C[C@H](O)CC[C@]4(C)[C@H]3C[C@H](O)[C@]12C [Cholic Acid, cholic acid]', 'RLU', 513.576),
  ('C[C@H](CCC(=O)NCC(=O)O)[C@H]1CC[C@H]2[C@@H]3[C@H](O)C[C@@H]4C[C@H](O)CC[C@]4(C)[C@H]3C[C@H](O)[C@]12C [Glycocholic Acid, glycocholic acid]', 'RLU', 529.97),
  ('C[C@H](CCC(=O)O)[C@H]1CC[C@H]2[C@@H]3CC[C@@H]4C[C@H](O)CC[C@]4(C)[C@H]3C[C@H](O)[C@]12C [Deoxycholic Acid, deoxycholic acid]', 'RLU', 62.7416);

Next compound, please.
If you can, please state the reported RLU value of C[C@H](CCC(=O)O)[C@H]1CC[C@H]2[C@@H]3CC[C@@H]4C[C@H](O)CC[C@]4(C)[C@H]3CC[C@]12C [Lithocholic Acid, lithocholic acid] .
167.63

###

- Assay target: human TAS2R14 (Homo sapiens, UniProt Q9NYV8)
- Construct: expressed in transfected cells; host or cells: HEK293T-Gα16gust44
- Assay summary: Calcium imaging assay (FLIPR), HEK293T-Gα16gust44 cells transfected with human TAS2R14
- Type: cell-based
- Condition summary: TAS2R14 trace; Time (s) 68.797 (Chenodeoxycholic Acid 68.781)
RLU values, listed per item
Give the number; RLU is assumed, so skip it.

Examples from the recorded data:
INSERT INTO measurements (compound, reading) VALUES
  ('C[C@H](CCC(=O)NCCS(=O)(=O)O)[C@H]1CC[C@H]2[C@@H]3[C@H](O)C[C@@H]4C[C@H](O)CC[C@]4(C)[C@H]3C[C@H](O)[C@]12C', 602.865),
  ('C[C@H](CCC(=O)NCCS(=O)(=O)O)[C@H]1CC[C@H]2[C@@H]3CC[C@@H]4C[C@H](O)CC[C@]4(C)[C@H]3CC[C@]12C', 237.861),
  ('C[C@H](CCC(=O)NCC(=O)O)[C@H]1CC[C@H]2[C@@H]3[C@H](O)C[C@@H]4C[C@H](O)CC[C@]4(C)[C@H]3C[C@H](O)[C@]12C', 571.358),
  ('C[C@H](CCC(=O)O)[C@H]1CC[C@H]2[C@@H]3[C@H](O)C[C@@H]4C[C@H](O)CC[C@]4(C)[C@H]3CC[C@]12C', 591.364);

Attention now turns to another entry.
Would you kindly share the measured RLU for `C[C@H](CCC(=O)O)[C@H]1CC[C@H]2[C@@H]3[C@H](O)C[C@@H]4C[C@H](O)CC[C@]4(C)[C@H]3C[C@H](O)[C@]12C` ?
795.682
